Target: T1, polypeptide GC3pep (human)
T1 construct: also called membrane proximal polypeptide GC3pep
T1 peptide: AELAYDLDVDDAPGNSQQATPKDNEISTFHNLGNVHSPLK
Test: ELISA, GC3pep coated, antibody 10 nM;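 also: antibody bound to the coated peptide for 2 h at 37 °C, detected through an HRP-conjugated secondary antibody with TMB colour development stopped by acid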
// returns not fulfilled unless OD450 nm is strictly below 0.07 OD450 nm, in which case fulfilled

Task: Take the binder F4.13.7 (antibody, human IgG1, kappa, V domains shown, human-murine chimeric antibody) VH: QVQLQQPGAELVKPGASVKLSCKASGYTFTNNWVHWVKQRPGQGLEWTGMIHPDSGSTIYNEKFQSKATLTVDKSSSTAYMQLSSLTSEDSAVYYCARGYYDSSSYYAMDYWGQGTSVTVSS VL: NIQMTQTTSSLSASLGDRVTISCSASQGIFNYLNWYQQKPDGTVKLLIYYTSSLHSGVPSRFSGSGSGTDYSLTISNLEPEDIATYYCQQYSKLPWTFGGGTKLEIKR and say whether its OD450 nm is less than 0.07 OD450 nm.
Output: fulfilled

Task: How about this binder: F4.21.16 (antibody, human IgG1, kappa, V domains shown, human-murine chimeric antibody) VH: DVQLQESGPGLVKPSQSLSLTCSVTGYSITSGYYWNWIRQFPGNKLEWMGYISYDVTVNYNPSLKNRISITRDTSKNQFFLKLNSVTTEDTATYYCATITSVASMDHWGQGTSVTVSS VL: DILMTQTPLSLPVSLGDQASISCRSSQNIVHRNGNTYLEWYLQKPGQSPKLLLYKVSNRFSGVPDRFSGSGSGTDFTLKISRVEAEDLGIYYCFQGSHFPFTFGSGTKLEIKR
Output: fulfilled

Task: How about this binder: F3.81.19 (antibody, human IgG1, kappa, V domains shown, human-murine chimeric antibody) VH: QVQLQQSGAELVRPGASVKLSCKASGYTFTDYEMHWVKQTPVHGLEWIGTIDPETGNTAYNQKFKGKATLTADKSSSTAYMELRSLTSEDSAVYYCTRPYSLTYWGQGTLVTVSA VL: DVLLTQTPLSLPVSLGDQASISCRSSQSFVHSNGDTYLQWYLQKPGQSPKLLIYKVSNRFSGVPDRFSGSGSGTDFTLKISRVEAEDLGVYYCFQGSHVPYTFGSGTKLEIKR
Output: not fulfilled

Task: How about this binder: F1.120.16 (antibody, human IgG1, kappa, V domains shown, human-murine chimeric antibody) VH: EFQLQQSGPELVKPGASVKISCKASGYSFTDYNMNWVKQSNGKSLEWIGLIHPKFSVTSYNRKFKGKATLTVDQSSSTAYMQLNSLTSEDSAVYYCARWAGDYFDYWGQGTTLTVSS VL: DIVLTQSPATLSVTPGDSVSLSCRASQSISNNLHWYQQKSHESPRLLIKYASQSISGIPSRFSGSGSGTDFTLTINSVETEDFGMYFCQQSNSWPQTFGGGTKLEIKR
Output: fulfilled

Task: How about this binder: F2.152.3 (antibody, human IgG1, kappa, V domains shown, human-murine chimeric antibody) VH: EVQLQQSGPELVKPGASVKMSCKASGYTFTDYYMTWVKQSHGKSLEWIGRVNPRNGDTTYNQKFEGRATLTLDKSLSTAFMQLNSLTSEDSAVYYCINSKGHFDYWGQGTTLTVSS VL: DVLMTQTPLSLPVSLGDQASISCRSSQSIVHSNGNTYLEWFLQKPGQSPKSLIYKVSNRFSGVPDRFSGSGSGTDFTLKISRVEAEDLGVYYCFQGSHVPPTFGAGTKLELKR
Output: not fulfilled

Task: How about this binder: F1.42.8 (antibody, human IgG1, kappa, V domains shown, human-murine chimeric antibody) VH: HVQLQQPGAELVKPGASVKLSCKASGYTFTSYWMHWVRQRPGQGLEWIEMIHPNSGSTNYNEKFKSKATLTVDKSSSTAYMQLSSLTSEDSAVYYCARGNYNSSLYAMDYWGQGTSVTVSS VL: DIQMTQTTSSLSASLGDRVTISCSASQGISNYLNWYQQKPDGTVKLLIYYASNLHSGVPSRFSGSGSGTAYSLTISNLEPEDIATYYCQQYSILPYTFGGGTKLEIKR
Output: fulfilled

Task: How about this binder: F1.111.11 (antibody, human IgG1, kappa, V domains shown, human-murine chimeric antibody) VH: EVQLQQSGPELVKPGASVKISCKASGYTFTDYYMNWVKQSHGKSLEWIGDIYPNNGDTTYNQRFKGKATLTVDKSSSTAYMELRSLASEDSAVYYCACPYNNPFGYWGQGTLVTVSA VL: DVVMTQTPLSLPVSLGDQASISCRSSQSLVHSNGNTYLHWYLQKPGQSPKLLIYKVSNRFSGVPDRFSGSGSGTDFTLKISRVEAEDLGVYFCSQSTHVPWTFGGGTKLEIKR
Output: fulfilled

Task: How about this binder: F1.2.14 (antibody, human IgG1, kappa, V domains shown, human-murine chimeric antibody) VH: RVQLQQSGAELVKPGASVRMSCKASGYTFTAYSIEWMKQNLGKSLEWIGNFRPYNDDTKYNENFKGRATLTVEKSSATVYLELSRLTSDDSAVYYCARSGPTDYFDYWGQGTTLIVSS VL: DIQMTQSPASLSASVGETVTITCRASDNIYSYLAWYQQKQGQSPQLLVYNAKTLAEGVPSRFSGSGSVTQFSLKIISLQPEDFGTYYCQHHFGTPRTFGGGTKLEIKR
Output: fulfilled
